This section presents compounds with their documented GI50 values.
tested on: IGROV-1; assay: NCI tumour cell line growth inhibition, 48 h
The source made the active and inactive calls. Rule as the data show it: active = GI50 up to about 1.1 µM and inactive = higher.

compound: O=c1c2cc([N+](=O)[O-])ccc2n2n1CCCC2
tested-system: IGROV-1
readout-type: GI50
reported-result: > 100 µM (inactive)
--
compound: C=CCCCCCCCCCP(=O)(c1ccccc1)c1ccc2c(c1)OCCOCCOCCOCCO2 (stereo unspecified)
tested-system: IGROV-1
readout-type: GI50
reported-result: 16 µM (inactive)
--
compound: Fc1ccc(C(OCCN2CC3CC2CN3)c2ccc(F)cc2)cc1 (stereo unspecified)
tested-system: IGROV-1
readout-type: GI50
reported-result: 53.3 µM (inactive)
--
compound: c1ccc2c(Nc3ncco3)cccc2c1
tested-system: IGROV-1
readout-type: GI50
reported-result: > 10 µM (inactive)
--
compound: CN(C)/C=C(\C(=O)c1ccccc1)n1nc(-c2ccccc2)cc1-c1ccccc1
tested-system: IGROV-1
readout-type: GI50
reported-result: > 10 µM (inactive)

Read the next record carefully.
Give the measured GI50 for Cc1ccc(CCNC(=S)SCC(NC(=O)CCC(N)C(=O)O)C(=O)NCC(=O)O)cc1 (stereo unspecified)
2.11 µM (inactive)

* * *

system: OVCAR-3; assay: NCI tumour cell line growth inhibition, 48 h
Calls of active or inactive are those of the source. Rule as the data show it: active = GI50 up to about 1.1 µM and inactive = higher.
Measured GI50 of individual entries

In one line, give reported GI50 of the entry "CN(C)CCCNC(=O)c1cccc2nc3ccccc3nc12" .
19.4 µM (inactive)

Answer with the recorded GI50 of "C[C@]12CCC(=O)C=C1CC[C@@H]1[C@@H]2CC[C@]2(C)C(=O)NC(=O)C[C@@H]12" only.
> 100 µM (inactive)

In one line, give reported GI50 of the entry Cc1ccc(CCNC(=S)SCC(NC(=O)CCC(N)C(=O)O)C(=O)NCC(=O)O)cc1 (stereo not drawn) .
2.17 µM (inactive)

* * *

Items are presented alongside their recorded GI50.
test system: EKVX; experiment: NCI tumour cell line growth inhibition, 48 h
Calls of active or inactive are those of the source. Rule as the data show it: active = GI50 up to about 1.1 µM and inactive = higher.

// fetch GI50; item: COc1ccc(O)cc1C(O)c1ccccc1 (centres undefined) ; system: EKVX
> 100 µM (inactive)

Provide measured GI50 on EKVX for "CN(c1ccccc1)S(=O)(=O)c1ccccc1[N+](=O)[O-]" please.
> 100 µM (inactive)

Give GI50 only, for "Nn1c(S)nnc1NNC(=O)C(=O)Nc1cc(Cl)c(Cl)cc1Cl" , using EKVX data.
> 100 µM (inactive)

Provide EKVX GI50 reading for "O=c1[nH]nc(Cc2ccccc2)n1/N=C/c1ccccc1Cl" .
> 100 µM (inactive)

Please report GI50 with EKVX for item "Clc1ccc(CCN2CCOCC2)c(Cl)c1" .
> 100 µM (inactive)

Fill: GI50 (EKVX) for this compound "COc1ccc2c(c1)-c1c(c3cc(OC)ccc3n1CCCN(C)C)CC2"
13.2 µM (inactive)

# return GI50 of O=C(Cc1ccccc1)N/N=C(/c1nc2ccc([N+](=O)[O-])cc2nc1O)C(O)c1ccco1 (centres undefined) (system: EKVX)
> 100 µM (inactive)

// output GI50; input CC(=O)OC1C2CCC1C1C2C2(Cl)C(Cl)=C(Cl)C1(Cl)C2(Cl)Cl (centres undefined) ; system EKVX
11.3 µM (inactive)
